# Experiment Notes: NCI Yeast Anticancer Drug Screen. Data for the bub3 strain (AID 167)
# Test Parameters: S. cerevisiae bub3 mutant strain, at 50.0 µM, stronger effect = higher value
# Description: Growth inhibition of yeast strains with defined genetic alterations is measured as a screen for potential anti-cancer activity. Selected strains with alterations in DNA damage repair or cell cycle control were exposed to compounds and growth inhibition was measured relative to vehicle treated controls. The strain used in this assay is bub3
About 79,000 compounds went through this panel and 15% of them were active in at least one assay; those are over-represented in the sample as a whole.
Item-by-item account of growth inhibition
Answer in %, number only, no unit symbol.

Some solved entries appear below for comparison.
>>> recorded_measurement("C/C=C/c1ccc(OCC(=O)O)c(OC)c1")
98.8
>>> recorded_measurement("CC(=O)Nc1ccc(S(=O)(=O)/N=C2\\C=CC(=O)c3ccccc32)cc1")
71.7
>>> recorded_measurement("CN1c2ccccc2C(=O)NC1c1ccc([N+](=O)[O-])s1 (configuration not stated)")
57
>>> recorded_measurement("COc1ccc(OC)c(/C=C2/C(=O)ON=C2C)c1")
43.5
>>> recorded_measurement("Cc1c(N)ccc(O)c1C")
96.8
>>> recorded_measurement("c1ccc(-c2cc(Nc3ccc4c(c3)OCO4)c3cc(C4CCCCC4)ccc3n2)cc1")
41.2
>>> recorded_measurement("CCN(CC)CCNc1ccc(C)c2sc3cccc(O)c3c(=O)c12")
99.5
>>> recorded_measurement("CCCCCCCCCCCCCC(=O)OCCCC1CCCO1 (configuration not stated)")
11.3
>>> recorded_measurement("COc1ccc(/C=C\\Cc2cc3c(cc2OCCO)OCO3)cc1")
85.6
>>> recorded_measurement("O=C1C=CC(=O)C2C1Cc1ccccc1C2c1ccccc1 (configuration not stated)")
98.8

Ask | Reported growth inhibition, compound OC(C1CCCC1=N/N=C1/CCCC1C(O)(C(F)(F)Cl)C(F)(F)Cl)(C(F)(F)Cl)C(F)(F)Cl (configuration not stated) : ____
Reply | 91.8

Ask | For "Clc1cc(Cl)c(OCCOCCI)c(Cl)c1" then?
Reply | 48

Ask | Cool, now "CCCCCC/C=C\CCCCCCCCCc1c(O)c(OC)cc(O)c1CN(C)C"
Reply | 80.8

Ask | Here is the next compound: CC(=O)C(C(=N)C#N)C(=O)Nc1ccccc1 (configuration not stated)
Reply | -44

Ask | Quick one: "CCOc1ccccc1/C=N/Nc1nnc(N/N=C/c2ccccc2OCC)c2ccccc12"
Reply | 44.2

Ask | And for C/C=C\C(/C=C/C)(C(=O)OCCN(C)C)C(/C=C\C)(/C=C/C)C(=O)OCCN(C)C (configuration not stated) ?
Reply | 95.4

Ask | Repeat for the following compound: "CC(=O)N(C)NC(=O)c1ccccc1"
Reply | 12.9

Ask | And for "Cc1cc(Br)c2ccccc2c1N" ?
Reply | 75

Ask | And what about the compound CCOC(=O)c1ccc(N(CCC(O)CN=[N+]=[N-])S(=O)(=O)c2ccc(C)cc2)cc1 (configuration not stated) ?
Reply | 5.9

----------
# Experiment Notes: NCI Yeast Anticancer Drug Screen. Data for the cln2 rad14 strain (AID 165);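 further: 0% = growth equal to vehicle treated cultures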
# Test Parameters: S. cerevisiae cln2 rad14 strain, at 50.0 µM
About 79,000 compounds went through this panel and 15% of them were active in at least one assay; those are over-represented in the sample as a whole. Activity calls are given as the source filed them. Rule as the data show it: active = growth inhibition above about 70%; inactive = the rest.
Assign a class; possible classes are t (active), f (inactive)

>>> class_name("CCC1=C(C)/C(=C/c2[nH]c(C(Br)Br)c(CC)c2C)N=C1C(Br)Br")
"t"
>>> class_name("O=C(O)CSc1cc2c3ccccc3sc2c2ccccc12")
"t"
>>> class_name("O=C(O)Cc1cccc2cc3c(ccc4ccccc43)cc12")
"t"

Ask | Write down the call the test reported for this compound. Item: "Clc1ccccc1C=Nc1cccc2ccccc12"
Reply | f

Ask | Moving on to the next compound: "C[C@]12C[C@@H](c3ccccc3)Nc3ccccc3N1C(c1ccccc1)=NO2"
Reply | f

Ask | # repeat for "COc1ccc(Cc2coc3ccccc3c2=O)cc1OC"
Reply | f

Ask | Next entry: "CCCCCCCCCCNC(=O)C[n+]1cccc(C(=O)Nc2ccccc2)c1"
Reply | t

Ask | What about this compound? "O=C(C(=O)n1ncc(Cl)c(Cl)c1=O)n1ncc(Cl)c(Cl)c1=O"
Reply | f

Ask | How about this compound: "CN(C)C=NCCNc1ccc([N+](=O)[O-])cn1"
Reply | f

Ask | Next: "O=CC(=C\c1ccco1)/C(C=O)=C\c1ccco1"
Reply | f

Ask | Same question, O=C1c2ccccc2S(=O)(=O)CC1Br (stereo unspecified) this time
Reply | t

Ask | // same read-out, input: "CCC[N+]1=C(/C=C/c2ccc3cccnc3c2O)C(C)(C)c2ccccc21"
Reply | t

Ask | Try "Cc1cccc2c(=O)c3ccccc3oc12" next.
Reply | f

Ask | # repeat for "COC(=O)c1c(C(N)=O)c(C)n(NC(=O)Nc2ccccc2)c1C"
Reply | t

Ask | Further, for CCOC(=O)C(Br)C(Br)c1cccc(Cl)c1 (stereo unspecified) ?
Reply | t

Ask | Same read-out for "CCCCCCC/C=C\C(=O)O" ?
Reply | f

Ask | Likewise for O=C(O)C1C(=O)OC2CCCCC21 (stereo unspecified) ?
Reply | f

Ask | Now the same for "N#CC(CCCCl)(c1ccccc1)c1ccccc1"
Reply | f

Ask | Another compound: "CC(=O)Nc1ccccc1C(O)(c1ccccc1)c1ccccc1"
Reply | f

Ask | Now try CC1NS(=O)(=O)N(C)C1=O (stereo unspecified) .
Reply | f

----------
The entries below are paired with their reported growth inhibition.
# Experiment Notes: NCI Yeast Anticancer Drug Screen. Data for the rad50 strain (AID 155);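 further: 0% = growth of vehicle-only cultures of the same strain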
# Test Parameters: S. cerevisiae rad50 strain growth inhibition; at 5.0 µM (retest, dose inferred, filed as 0.5); stronger effect = higher value
Compounds without any hit were thinned out: in the full panel of roughly 79,000, 15% have a hit.
Give the value, in units of %, as a plain number.

>>> recorded_measurement("CC(=O)Oc1c(Br)ccc2cc(C(Br)Br)c(C(=O)c3ccccc3)nc12")
55
>>> recorded_measurement("Oc1cc2ccccc2c2c1ccc1ccccc12")
-142
>>> recorded_measurement("Cc1cc2c(C(C)C)c(O)c(O)c3coc(/c1=c1/c(C)cc4c(C(C)C)c(=O)c(=O)c5coc1c45)c32")
-1
>>> recorded_measurement("C1CCC(C2=NC3CCCCC3SC2)CC1 (configuration not stated)")
5
>>> recorded_measurement("CC(=O)C(C(=N)C#N)C(=O)Nc1ccccc1 (configuration not stated)")
1

Ask | // growth inhibition lookup, key: COC(=O)CC1SC(=S)N(Cc2ccc(Cl)cc2)C1=O (configuration not stated)
Reply | -6

Ask | Next entry: "COc1ccccc1NC(=O)O/N=C(/Cl)C(C)C"
Reply | 1

Ask | Same question for "C=CCOCCC(=O)OCC=C" please.
Reply | 0

Ask | Now the molecule "Cc1nc2c(cnn2C)cc1CCc1ccccc1"
Reply | 2

Ask | Likewise for "CCCCCCCCCCC(NC(C)=O)(C(=O)OCC)C(=O)OCC" ?
Reply | -9

Ask | And "CCOC(=O)/C(=C\c1ccc([N+](=O)[O-])cc1)C(C)=O" ?
Reply | 46

Ask | Likewise for "COC(=O)c1nc(=S)[nH]c(C(=O)OC)c1C(=O)C(C)(C)C" ?
Reply | 6

----------
# Experiment Notes: NCI Yeast Anticancer Drug Screen. Data for the sgs1 mgt1 strain (AID 161);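 further: 0% = growth of cultures given vehicle only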
# Test Parameters: S. cerevisiae sgs1 mgt1 strain, at 50.0 µM (retest, dose inferred, filed as 5.0), stronger effect = higher value
The panel holds about 79,000 compounds, 15% with a hit somewhere; the sample as a whole holds those more often.
Catalogue of growth inhibition readings, one per entry.
Quick note: give the figure in %, leave out the unit.

Solved cases below.
>>> recorded_measurement("O=c1oc(-c2ccc(Cl)cc2[N+](=O)[O-])nc2ccccc12")
6
>>> recorded_measurement("CC(=O)O[C@H]1CC[C@@]2(C)C(CC[C@]3(C)C2CC=C2[C@@H]4CC(C)(C)CC[C@]4(C(=O)NCCN(C)C)CCC23C)C1(C)C (stereo not given in full)")
98

Ask | # get_value(readout='growth inhibition', item= CC(SC1=CC(=O)c2c(Cl)ccc(O)c2C1=O)C(=O)O (stereo not given) )
Reply | 30

Ask | Same question, "c1cc2c(c3c1CN(C1CCCCC1)CO3)OCN(C1CCCCC1)C2" this time
Reply | 16

Ask | "O=[N+]([O-])c1ccc2c(Nc3ccccc3-c3ccccc3Nc3c4ccccc4nc4cc([N+](=O)[O-])ccc34)c3ccccc3nc2c1" ?
Reply | 98

Ask | Okay, and "CC(C)(C)NCc1cc(Nc2ccnc3cc(Cl)ccc23)cc(-c2ccc(Cl)cc2)c1O" ?
Reply | -15

Ask | Same read-out for "Cc1c2ccccc2c(C)c2c1cc(F)c1ccccc12" ?
Reply | 94

Ask | Now consider "O=C(NNc1ccccc1)c1ccc([N+](=O)[O-])cc1" .
Reply | 97

Ask | Also "S=C(NN1CCOCC1)SSC(=S)NN1CCOCC1" ?
Reply | 99

Ask | Try this molecule next: "CCCCCCCCCCCCCCCCSC(=NC)NC"
Reply | 100

Origin of values: PubChem BioAssay (NCI)
